Values were extracted from ChEMBL document CHEMBL1122208.

assay-remarks: Partition coefficient (logP)
Type: physicochemical
conditions: octanol/water

- molecule: "CCCCCc1nc2ccccc2[nH]1"
  logP: 3.85
- molecule: "Cc1cc2nc[nH]c2cc1C [DIMEDAZOL]"
  logP: 2.35
- molecule: "CCCCCCCCCCCc1nc2ccccc2[nH]1"
  logP: 6.85
- molecule: "c1ccc2[nH]cnc2c1 [BENZIMIDAZOLE]"
  logP: 1.35
- molecule: "Cc1nc2ccccc2[nH]1"
  logP: 1.85
- molecule: "CCc1nc2ccccc2[nH]1"
  logP: 2.35
- molecule: "CCCCCCCc1nc2ccccc2[nH]1"
  logP: 4.85
- molecule: "Cc1nc2cc(C)c(C)cc2[nH]1"
  logP: 2.85
- molecule: "CCCc1nc2ccccc2[nH]1"
  logP: 2.85
- molecule: "CCc1nc2cc(C)c(C)cc2[nH]1"
  logP: 3.35

====

experimental-system: aryl hydrocarbon hydroxylase (cytochrome P450 1A1) (Rattus norvegicus, UniProt P00185)
Sequence (P00185 whole entry): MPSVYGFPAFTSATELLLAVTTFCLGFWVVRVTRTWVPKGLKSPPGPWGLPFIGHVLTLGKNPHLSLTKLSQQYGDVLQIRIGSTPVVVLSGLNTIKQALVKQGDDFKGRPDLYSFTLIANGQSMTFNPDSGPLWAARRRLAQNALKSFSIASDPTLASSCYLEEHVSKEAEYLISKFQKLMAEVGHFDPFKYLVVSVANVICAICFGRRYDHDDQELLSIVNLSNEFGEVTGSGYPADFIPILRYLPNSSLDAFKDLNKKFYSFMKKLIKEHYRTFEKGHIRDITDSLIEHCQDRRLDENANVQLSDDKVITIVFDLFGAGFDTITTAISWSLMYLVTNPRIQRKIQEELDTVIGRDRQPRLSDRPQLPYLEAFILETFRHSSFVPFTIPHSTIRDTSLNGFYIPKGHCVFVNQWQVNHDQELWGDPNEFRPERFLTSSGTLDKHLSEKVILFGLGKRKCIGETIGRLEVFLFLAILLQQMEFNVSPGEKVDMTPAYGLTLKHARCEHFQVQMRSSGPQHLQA
assay-remarks: Effect on Aryl hydrocarbon hydroxylase activity in 3-methylcolanthrene-induced rat liver microsomes at 1.2x10E-3M
Assay type: ADME, Microsome
conditions: 3-methylcholanthrene-induced rat liver microsomes, read-out: Control
readout-label: activity at 0.0012 M (%)

- smiles-text: "c1ccc2[nH]cnc2c1"
  experimental-system: "aryl hydrocarbon hydroxylase (cytochrome P450 1A1) (Rattus norvegicus, UniProt P00185)"
  result-value: 101

====

experimental-system: aryl hydrocarbon hydroxylase (cytochrome P450 1A1) (Rattus norvegicus)
assay-remarks: Effect on Aryl hydrocarbon hydroxylase activity in 3-methylcolanthrene-induced rat liver microsomes at 5.0x10E-5M
Type: ADME, Microsome
conditions: 3-methylcholanthrene-induced rat liver microsomes, read-out: Control
readout-label: activity at 50 µM (%)

- smiles-text: "CCCCCCCCCCCc1nc2ccccc2[nH]1"
  experimental-system: "aryl hydrocarbon hydroxylase (cytochrome P450 1A1) (Rattus norvegicus)"
  readout-label: "activity at 50 µM"
  result-value: 103

====

experimental-system: UniProtKB P00185
assay-remarks: Effect on Aryl hydrocarbon hydroxylase activity in 3-methylcolanthrene-induced rat liver microsomes at 5.9x10E-4M
Type: ADME, Microsome
conditions: 3-methylcholanthrene-induced rat liver microsomes, read-out: Control

- smiles-text: "CCCc1nc2ccccc2[nH]1"
  activity at 0.00059 M / %: 99

====

experimental-system: aryl hydrocarbon hydroxylase (cytochrome P450 1A1) (Rattus norvegicus, UniProt P00185)
assay-remarks: Inhibition of Aryl hydrocarbon hydroxylase in phenobarbitone-treated rats
conditions: read-out: I50
pIC50: −log10 of the molar value. Where a name gives a salt, the structure may show the parent alone.
readout-label: pIC50

- molecule: "Cc1cc2nc[nH]c2cc1C [DIMEDAZOL]"
  experimental-system: "aryl hydrocarbon hydroxylase (cytochrome P450 1A1) (Rattus norvegicus, UniProt P00185)"
  result-value: 4.01
- molecule: "CCc1nc2ccccc2[nH]1"
  experimental-system: "aryl hydrocarbon hydroxylase (cytochrome P450 1A1) (Rattus norvegicus, UniProt P00185)"
  result-value: 3.20
- molecule: "CCCCCc1nc2ccccc2[nH]1"
  experimental-system: "aryl hydrocarbon hydroxylase (cytochrome P450 1A1) (Rattus norvegicus, UniProt P00185)"
  result-value: 4.09
- molecule: "CCCc1nc2ccccc2[nH]1"
  experimental-system: "aryl hydrocarbon hydroxylase (cytochrome P450 1A1) (Rattus norvegicus, UniProt P00185)"
  result-value: 3.32
- molecule: "CCCC(C(=O)OCCN(CC)CC)(c1ccccc1)c1ccccc1 [PROADIFEN HYDROCHLORIDE]"
  experimental-system: "aryl hydrocarbon hydroxylase (cytochrome P450 1A1) (Rattus norvegicus, UniProt P00185)"
  result-value: 4.66
- molecule: "Cc1nc2ccccc2[nH]1"
  experimental-system: "aryl hydrocarbon hydroxylase (cytochrome P450 1A1) (Rattus norvegicus, UniProt P00185)"
  result-value: 3.17
- molecule: "CCCCCCCCCCCc1nc2ccccc2[nH]1"
  experimental-system: "aryl hydrocarbon hydroxylase (cytochrome P450 1A1) (Rattus norvegicus, UniProt P00185)"
  result-value: 4.74
- molecule: "c1ccc(-c2c[nH]cn2)cc1"
  experimental-system: "aryl hydrocarbon hydroxylase (cytochrome P450 1A1) (Rattus norvegicus, UniProt P00185)"
  result-value: 4.48
- molecule: "CCc1nc2cc(C)c(C)cc2[nH]1"
  experimental-system: "aryl hydrocarbon hydroxylase (cytochrome P450 1A1) (Rattus norvegicus, UniProt P00185)"
  result-value: 3.96
- molecule: "c1ccc2[nH]cnc2c1 [BENZIMIDAZOLE]"
  experimental-system: "aryl hydrocarbon hydroxylase (cytochrome P450 1A1) (Rattus norvegicus, UniProt P00185)"
  result-value: 2.96
- molecule: "CCCCCCCc1nc2ccccc2[nH]1"
  experimental-system: "aryl hydrocarbon hydroxylase (cytochrome P450 1A1) (Rattus norvegicus, UniProt P00185)"
  result-value: 4.62
- molecule: "Cc1nc2cc(C)c(C)cc2[nH]1"
  experimental-system: "aryl hydrocarbon hydroxylase (cytochrome P450 1A1) (Rattus norvegicus, UniProt P00185)"
  result-value: 3.77
- molecule: "c1ccc2cc3[nH]cnc3cc2c1"
  experimental-system: "aryl hydrocarbon hydroxylase (cytochrome P450 1A1) (Rattus norvegicus, UniProt P00185)"
  result-value: 4.08

====

experimental-system: aryl hydrocarbon hydroxylase (cytochrome P450 1A1) (Rattus norvegicus, UniProt P00185)
assay-remarks: Effect on Aryl hydrocarbon hydroxylase activity in 3-methylcolanthrene-induced rat liver microsomes at 5.2x10E-5M
Assay type: ADME, Microsome
conditions: 3-methylcholanthrene-induced rat liver microsomes, read-out: Control
Counter-ions that a name gives are not always drawn.
readout-label: activity at 52 µM

- molecule: "CCCC(C(=O)OCCN(CC)CC)(c1ccccc1)c1ccccc1 [PROADIFEN HYDROCHLORIDE]"
  readout-label: "activity at 52 µM"
  result-value: "105%"

====

experimental-system: cytochrome P450 (cytochrome P450 1A1) (Rattus norvegicus)
Sequence (P00185 whole entry): as the sequence (P00185 whole entry) above
assay-remarks: Interaction with cytochrome P450 in 3-methylcholanthrene-induced rat hepatic microsomes
Assay type: ADME, Liver
conditions: read-out: Ks
pKd: −log10 of the molar value.
Use yes when the recorded pKd is no lower than 3; use no when it is lower.

- smiles-text: "Cc1nc2cc(C)c(C)cc2[nH]1"
  experimental-system: "cytochrome P450 (cytochrome P450 1A1) (Rattus norvegicus)"
  label: "yes"
- smiles-text: "Cc1nc2ccccc2[nH]1"
  experimental-system: "cytochrome P450 (cytochrome P450 1A1) (Rattus norvegicus)"
  label: "yes"
- smiles-text: "c1ccc2[nH]cnc2c1"
  experimental-system: "cytochrome P450 (cytochrome P450 1A1) (Rattus norvegicus)"
  label: "no"
- smiles-text: "c1ccc(-c2c[nH]cn2)cc1"
  experimental-system: "cytochrome P450 (cytochrome P450 1A1) (Rattus norvegicus)"
  label: "yes"
- smiles-text: "Cc1cc2nc[nH]c2cc1C"
  experimental-system: "cytochrome P450 (cytochrome P450 1A1) (Rattus norvegicus)"
  label: "yes"

====

experimental-system: aryl hydrocarbon hydroxylase (cytochrome P450 1A1) (Rattus norvegicus)
assay-remarks: Effect on Aryl hydrocarbon hydroxylase activity in 3-methylcolanthrene-induced rat liver microsomes at 1.7x10E-4M
Format: ADME, Microsome
conditions: 3-methylcholanthrene-induced rat liver microsomes, read-out: Control

- smiles-text: "CCCCCCCc1nc2ccccc2[nH]1"
  experimental-system: "aryl hydrocarbon hydroxylase (cytochrome P450 1A1) (Rattus norvegicus)"
  units: "%"
  activity at 0.00017 M: 93

====

experimental-system: cytochrome P450 (cytochrome P450 1A1) (Rattus norvegicus)
assay-remarks: Interaction (Ks) with cytochrome P450 in 3-methylcholanthrene-induced rat hepatic microsomes
Format: ADME, Liver
conditions: read-out: Ks
Reported Kd values for a set of molecules

- smiles-text: "Cc1ccc2[nH]cnc2c1"
  units: "µM"
  Kd: 210
- smiles-text: "c1ccc2cc3[nH]cnc3cc2c1"
  units: "µM"
  Kd: 82

====

experimental-system: aryl hydrocarbon hydroxylase (cytochrome P450 1A1) (Rattus norvegicus, UniProt P00185)
assay-remarks: Effect on Aryl hydrocarbon hydroxylase activity in 3-methylcolanthrene-induced rat liver microsomes at 8x10E-4M
Format: ADME, Microsome
conditions: 3-methylcholanthrene-induced rat liver microsomes, read-out: Control

- smiles-text: "Cc1cc2nc[nH]c2cc1C"
  experimental-system: "aryl hydrocarbon hydroxylase (cytochrome P450 1A1) (Rattus norvegicus, UniProt P00185)"
  units: "%"
  activity at 0.0008 M: 69

====

Listed here: compounds with reported pIC50 for UniProt P00176.
Sequence (P00176 whole entry): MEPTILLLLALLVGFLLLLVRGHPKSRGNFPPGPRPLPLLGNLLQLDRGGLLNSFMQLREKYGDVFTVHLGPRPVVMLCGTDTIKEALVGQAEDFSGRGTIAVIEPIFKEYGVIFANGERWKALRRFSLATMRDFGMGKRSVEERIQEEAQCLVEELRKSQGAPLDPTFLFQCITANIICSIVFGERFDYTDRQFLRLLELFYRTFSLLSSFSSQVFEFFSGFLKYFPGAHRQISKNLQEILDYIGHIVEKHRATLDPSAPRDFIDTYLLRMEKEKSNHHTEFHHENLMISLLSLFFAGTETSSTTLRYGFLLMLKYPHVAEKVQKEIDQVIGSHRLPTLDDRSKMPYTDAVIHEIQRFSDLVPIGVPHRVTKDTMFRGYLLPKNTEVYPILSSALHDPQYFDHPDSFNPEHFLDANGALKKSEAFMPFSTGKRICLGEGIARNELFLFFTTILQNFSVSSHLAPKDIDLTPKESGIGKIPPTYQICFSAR
pIC50: −log10 of the molar value. Where a name gives a salt, the structure may show the parent alone.

- compound: "c1ccc2[nH]cnc2c1"
  pIC50: 3.01
- compound: "Cc1cc2nc[nH]c2cc1C"
  pIC50: 3.74
- compound: "CCc1nc2ccccc2[nH]1"
  pIC50: 3.17
- compound: "CCCCCc1nc2ccccc2[nH]1"
  pIC50: 4.30
- compound: "CCCc1nc2ccccc2[nH]1"
  pIC50: 3.52
- compound: "c1ccc(-c2c[nH]cn2)cc1"
  pIC50: 5.13
- compound: "CCCC(C(=O)OCCN(CC)CC)(c1ccccc1)c1ccccc1 [PROADIFEN HYDROCHLORIDE]"
  pIC50: 5.09
- compound: "CCc1nc2cc(C)c(C)cc2[nH]1"
  pIC50: 3.74
